biological target: Transient receptor potential cation channel subfamily V member 1 (Homo sapiens); test: Antagonist activity at human TRPV1 channel
Sequence (Q8NER1 whole entry): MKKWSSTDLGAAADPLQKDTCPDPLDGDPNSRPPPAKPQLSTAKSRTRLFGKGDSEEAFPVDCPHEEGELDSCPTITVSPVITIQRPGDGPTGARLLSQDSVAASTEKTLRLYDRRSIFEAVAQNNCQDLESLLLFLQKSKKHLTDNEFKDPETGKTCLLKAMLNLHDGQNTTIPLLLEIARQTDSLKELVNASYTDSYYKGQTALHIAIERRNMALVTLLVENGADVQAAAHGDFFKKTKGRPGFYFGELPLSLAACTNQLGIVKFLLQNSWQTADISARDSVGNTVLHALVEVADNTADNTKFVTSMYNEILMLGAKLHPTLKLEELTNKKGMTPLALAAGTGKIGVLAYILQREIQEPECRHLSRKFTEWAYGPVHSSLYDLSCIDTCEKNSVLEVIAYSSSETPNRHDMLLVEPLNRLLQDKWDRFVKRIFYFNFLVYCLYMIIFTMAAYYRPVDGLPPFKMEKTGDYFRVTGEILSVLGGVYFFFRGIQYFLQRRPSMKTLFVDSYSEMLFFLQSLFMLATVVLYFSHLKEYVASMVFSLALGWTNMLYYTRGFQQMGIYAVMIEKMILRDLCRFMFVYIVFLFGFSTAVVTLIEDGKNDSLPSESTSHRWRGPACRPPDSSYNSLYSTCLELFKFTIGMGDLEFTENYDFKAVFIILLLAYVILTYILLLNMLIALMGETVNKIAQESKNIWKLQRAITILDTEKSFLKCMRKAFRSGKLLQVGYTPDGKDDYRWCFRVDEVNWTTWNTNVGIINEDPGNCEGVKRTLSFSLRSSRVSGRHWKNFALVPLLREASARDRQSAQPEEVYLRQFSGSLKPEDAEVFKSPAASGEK
QUANTITY KIND: IC50

{"columns": ["STRUCTURE SMILES", "MEASURED TARGET", "RESULT"],
 "data": [
  ["CC(C)c1ccc(NC(=O)Cn2cnc3c2c(=O)n(C)c(=O)n3C)cc1", "Transient receptor potential cation channel subfamily V member 1 (Homo sapiens)", "> 20 µM"]
]}

----------
molecular target: Transient receptor potential cation channel subfamily A member 1 (Mus musculus, UniProt Q8BLA8); assay: Antagonist activity at mouse TRPA1 channel expressed in CHO cells assessed as blockade of agonist-induced whole cell conductance by electrophysiology; format: functional, cell-based
Sequence (Q8BLA8 whole entry): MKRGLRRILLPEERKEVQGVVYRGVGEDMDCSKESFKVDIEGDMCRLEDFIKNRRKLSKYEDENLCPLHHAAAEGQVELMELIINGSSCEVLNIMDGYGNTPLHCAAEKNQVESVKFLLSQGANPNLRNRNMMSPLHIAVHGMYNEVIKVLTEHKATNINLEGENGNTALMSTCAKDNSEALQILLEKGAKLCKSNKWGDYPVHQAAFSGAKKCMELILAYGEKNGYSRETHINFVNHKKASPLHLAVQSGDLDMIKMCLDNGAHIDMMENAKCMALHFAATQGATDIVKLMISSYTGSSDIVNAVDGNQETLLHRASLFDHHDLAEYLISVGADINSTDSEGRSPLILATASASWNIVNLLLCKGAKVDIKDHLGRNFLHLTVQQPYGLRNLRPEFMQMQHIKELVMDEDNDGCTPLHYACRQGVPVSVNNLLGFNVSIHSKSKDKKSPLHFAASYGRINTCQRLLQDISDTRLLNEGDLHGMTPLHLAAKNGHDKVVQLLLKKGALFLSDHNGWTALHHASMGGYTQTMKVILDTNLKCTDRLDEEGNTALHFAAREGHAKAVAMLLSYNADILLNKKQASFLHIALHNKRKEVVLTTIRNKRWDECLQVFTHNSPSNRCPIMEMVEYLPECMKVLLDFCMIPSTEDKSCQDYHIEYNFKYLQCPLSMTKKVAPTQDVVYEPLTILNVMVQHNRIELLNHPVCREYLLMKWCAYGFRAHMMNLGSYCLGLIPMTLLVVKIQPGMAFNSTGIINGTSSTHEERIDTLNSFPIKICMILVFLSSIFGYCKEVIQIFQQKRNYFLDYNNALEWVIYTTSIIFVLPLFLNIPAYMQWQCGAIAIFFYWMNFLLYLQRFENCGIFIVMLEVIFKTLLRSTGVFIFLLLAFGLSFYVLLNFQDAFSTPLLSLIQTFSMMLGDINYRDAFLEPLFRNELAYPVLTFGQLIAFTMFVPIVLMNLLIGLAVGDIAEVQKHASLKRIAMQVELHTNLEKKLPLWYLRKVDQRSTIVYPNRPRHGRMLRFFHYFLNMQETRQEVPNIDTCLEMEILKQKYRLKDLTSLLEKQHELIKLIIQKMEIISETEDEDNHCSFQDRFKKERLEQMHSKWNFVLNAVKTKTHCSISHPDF
pEC50: −log10 of the molar value.

{"columns": ["MOLECULE", "pEC50"],
 "data": [
  ["CC1CCC(C(C)C)C(O)C1 (stereo unspecified)", 4.25]
]}
